- System: 5-hydroxytryptamine receptor 6 (Homo sapiens, UniProt P50406)
- Sequence (P50406 whole entry): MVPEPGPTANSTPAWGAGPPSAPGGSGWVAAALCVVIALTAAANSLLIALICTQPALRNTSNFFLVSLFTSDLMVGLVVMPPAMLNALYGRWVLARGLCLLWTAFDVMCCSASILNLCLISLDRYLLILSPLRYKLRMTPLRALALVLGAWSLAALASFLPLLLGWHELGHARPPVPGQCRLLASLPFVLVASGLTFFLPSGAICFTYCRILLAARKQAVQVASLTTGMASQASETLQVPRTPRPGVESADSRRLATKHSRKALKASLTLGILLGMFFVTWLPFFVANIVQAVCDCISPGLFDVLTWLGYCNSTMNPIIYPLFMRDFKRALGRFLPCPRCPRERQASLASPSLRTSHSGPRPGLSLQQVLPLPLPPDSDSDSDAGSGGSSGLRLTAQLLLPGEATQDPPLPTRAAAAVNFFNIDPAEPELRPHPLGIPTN
pKi: −log10 of the molar value. Counter-ions that a name gives are not always drawn.
Cut-off 6 on pKi, inclusive. At or above means Yes; below means No.

Solved entries (count: 6):
Compound | System | Assigned class
CN1CCCC(n2nc(Cc3ccc(Cl)cc3)c3ccccc3c2=O)CC1 (centres undefined) [AZELASTINE HYDROCHLORIDE] | 5-hydroxytryptamine receptor 6 (Homo sapiens, UniProt P50406) | No
Cc1nc2sccn2c(=O)c1CCN1CCC(=C(c2ccc(F)cc2)c2ccc(F)cc2)CC1 [RITANSERIN] | 5-hydroxytryptamine receptor 6 (Homo sapiens, UniProt P50406) | Yes
CC(C)[C@H](CO)Nc1nc(Nc2cccc(Cl)c2)c2ncn(C(C)C)c2n1 [PURVALANOLA] | 5-hydroxytryptamine receptor 6 (Homo sapiens, UniProt P50406) | No
C[C@@H](NCCCc1cccc(C(F)(F)F)c1)c1cccc2ccccc12 [CINACALCET HYDROCHLORIDE] | 5-hydroxytryptamine receptor 6 (Homo sapiens, UniProt P50406) | No
CN1C2CCC1CC(OC(c1ccc(F)cc1)c1ccc(F)cc1)C2 (centres undefined) | 5-hydroxytryptamine receptor 6 (Homo sapiens, UniProt P50406) | Yes
COc1ccc(S(=O)(=O)c2cc(OC)ccc2S(=O)(=O)c2ccc([C@H](C)NS(C)(=O)=O)cc2)cc1 | 5-hydroxytryptamine receptor 6 (Homo sapiens, UniProt P50406) | Yes

Shifting focus to the compound that follows.
Input: Assess whether reported pKi for NCCc1c[nH]c2ccc(C(N)=O)cc12 sits at 6 or higher.
Output: Yes
